# Organism: Rattus norvegicus
# assay.remarks: DrugMatrix - Regimen: Daily Repeat
# Assay type: toxicity, organism-based, Sprague-Dawley
# Design: regimen Daily Repeat, gender Male, age 6-8 weeks
# measurement.parameters: in vivo, po, 0 mg/kg, 72 h, tissue Blood, route oral GAVAGE, dose level Control, time 3 day, […]
// NB: equality with 200 CELLS/uL counts as NOT MET; only ABSOLUTE MONOCYTE strictly below is MET

INSERT INTO measurements (compound, discrete_label) VALUES
  ('CN(C)CCCC1(c2ccc(F)cc2)OCc2cc(C#N)ccc21 (stereo unspecified)', 'NOT MET'),
  ('COc1ccc2c(c1)c(CC(=O)OCC(=O)O)c(C)n2C(=O)c1ccc(Cl)cc1', 'NOT MET'),
  ('CC(=O)[C@H]1CC[C@H]2[C@@H]3CCC4=CC(=O)CC[C@]4(C)[C@H]3CC[C@]12C', 'NOT MET'),
  ('CCCCCCCCCc1ccc(O)cc1', 'MET'),
  ('CC1=C(/C=C/C(C)=C/C=C/C(C)=C\C(=O)O)C(C)(C)CCC1', 'MET'),
  ('CC(C)(Oc1ccc(CCNC(=O)c2ccc(Cl)cc2)cc1)C(=O)O [BEZAFIBRATE]', 'MET');

Source listed as ChEMBL document CHEMBL3885881.
